# EC50 annotations
- System: human TGR5 bile acid receptor (Homo sapiens)
- Construct: The full length TGR5 gene is inserted into pCMV6 vector DNA (Origene)
- Sequence (Q8TDU6 whole entry): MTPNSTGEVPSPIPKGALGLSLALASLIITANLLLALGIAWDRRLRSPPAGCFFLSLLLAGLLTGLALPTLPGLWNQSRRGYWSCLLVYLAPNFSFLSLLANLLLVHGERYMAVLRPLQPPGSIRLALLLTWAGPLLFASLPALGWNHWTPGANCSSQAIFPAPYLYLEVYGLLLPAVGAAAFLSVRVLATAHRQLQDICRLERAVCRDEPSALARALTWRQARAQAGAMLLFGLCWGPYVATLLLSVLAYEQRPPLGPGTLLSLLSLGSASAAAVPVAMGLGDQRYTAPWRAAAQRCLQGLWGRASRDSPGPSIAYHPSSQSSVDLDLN
- Experiment notes: TGR5 receptor activation, HTRF cAMP assay in 293/humanTGR5 cells
- Setup conditions: activation of 293/humanTGR5 (HEK 293) cells measured by cAMP levels, 30 minutes at 37° C., relative to vehicle and 50 μM of Compound 7

Reference set, count: 5
Structure smiles: Cc1cc(-c2csc3nnc(SCc4ccc5c(c4)OCO5)n23)ccc1F
EC50: < 0.5 µM

Structure smiles: Cc1ccc(N(C)c2nnc3scc(-c4cc(Cl)ccc4Cl)n23)cc1Cl
EC50: 0.5 to 5 µM

Structure smiles: c1ccc(-c2csc3nnc(SCc4ccc5cnccc5c4)n23)cc1
EC50: 5 to 50 µM

Structure smiles: COc1ccc(CSc2nnc3sc(-c4c(F)cccc4Cl)c(-c4ccc(F)cc4)n23)cc1F
EC50: 0.5 to 5 µM

Structure smiles: Cc1ccc(N(C)C(=O)c2sc3nnc(C)n3c2-c2ccccc2)cc1Cl
EC50: 0.5 to 5 µM

Record summary for `c1ccc(-c2csc3nnc(SCc4ccc5c(c4)OCO5)n23)cc1` : reported EC50 = 5 to 50 µM

Lab book: EC50 of `c1ccc(-c2csc3nnc(Oc4ccc5c(c4)OCO5)n23)cc1` noted as 5 to 50 µM

According to the records, this compound `Cc1ccc(-c2csc3nnc(SCc4c(F)cccc4Cl)n23)cc1` displays EC50 of < 0.5 µM

Lab note: measured EC50 of `C=C(c1ccc(OC)c(OC)c1)c1sc2nnc(SCc3c(F)cccc3Cl)n2c1-c1ccccc1` was 5 to 50 µM
